test: yeast display, Sf9 membrane polyspecificity reagent, FACS + sequencing; frameworks hold sequencing errors
MEASURED ATTRIBUTE: polyreactivity (PSR sort gate)

Solved entries (count: 5):
{"RESIDUE CODES": "QVQLVESAGGLVQAGGSLSLSCAASGLTFHYYHMGWYRQATGKETELVAAITSSGGRTYYADSVKGRFTISRDNEKNTVFLQMNSLKPEDTAVYFCAADIYPDWIYLLYGYWGQGTQVTVSS", "polyreactivity (PSR sort gate)": "low polyreactivity"}
{"RESIDUE CODES": "QVQLVESGGGLVQAGGSLRLSCAASGITFNSNAMGWYRQAPGKERELVATISNGGSTNYADSVKGRFTISRDNAKNTVYLQMNSLKPEDTAVYDCNTRRGSLSGLYVYSIQGYDYWGQGTQVTVSS", "polyreactivity (PSR sort gate)": "low polyreactivity"}
{"RESIDUE CODES": "QVQLVESGGGLVQAGGSLRVSCADSGNILYLYAMGWYREAPGKERELVAAISGNGGRTYYADSVKGRFTISRDNAKNTVYLQMNSLKPEDTAVYDCAADYAGRRFWYYHGLDSWGQGTQVTVSA", "polyreactivity (PSR sort gate)": "high polyreactivity"}
{"RESIDUE CODES": "QVQLVESGGGLVQAGGSLRLSCAASGRIFVTNAMGWYRQAPGKERELVASISSGGRTHYADSVKGRFTISRDNAKNTVYLQMNSLKPEDTAVYYCAKPPLYYYPALRGEEFYYWGQGTQVTVSS", "polyreactivity (PSR sort gate)": "low polyreactivity"}
{"RESIDUE CODES": "QVQLVESGGGLVQAGGSLRLSCAASGFTFGRYAMGWYRQAPGKERELVAAISWTGGSTYYADSVKGRFTISRDNAKNTVYLQMNSLKPEDTAVYYCAAVGRSKRDGYWGQGTQVTVSS", "polyreactivity (PSR sort gate)": "high polyreactivity"}

Sample "QVHLVDSGGGLVQAGCSLPLSCAASGRTFLAYAMGWYRQEPGKERQLVAAISGSGGRSYYADSVKGRFTISRDNAMNTVYLQMNSLKPEDTAVYYCAANVVRWWGDGDYWGQGTQVTVSS" — what was its polyreactivity (PSR sort gate)?
high polyreactivity

---

assay: yeast display, Sf9 membrane polyspecificity reagent, FACS + sequencing; frameworks hold sequencing errors
MEASURED ATTRIBUTE: polyreactivity (PSR sort gate)

Reference set, count: 4
{"RESIDUE CODES": "QVQLVESGGGLVQAGGSLRLSCAASGFTFGGYAMGWYRQAPGKERELVAAIRSSGDTTYYADSVKGRFTISRDNAKNTVYLQMNSLKPEDTAVYYCAAYSHHQFSRSEYYYWGQGTQVTVSS", "MEASURED": "low polyreactivity"}
{"RESIDUE CODES": "QVQLVESGGGLVQAGGSLRLSCAASGFTFRYYAMGWYRQAPGKERELVASISRSGSGTFYADSVKGRFTISRDNAKNTVYLQMNSLKPEDTAVYYCNAVSAAKIPFQKYGYWGQGTQVTVSS", "MEASURED": "high polyreactivity"}
{"RESIDUE CODES": "QVQLVESGGGLVQAGGSLRLSCAASGRTFGGNVMAWYRHAPGKERELVAAITWSGGSTYYADSVKGRFTISRDNAKNTVYVQMNSLKPEDTAVYYCNALWVWYRGSSVRWVGGYDYWGQGTQVTVSS", "MEASURED": "high polyreactivity"}
{"RESIDUE CODES": "QVQLVESGGGLVQAGGSLRLSCAASGGTFRVYVMGWYRQAPGKERELVAAISRGGGSTYYADSVKGRFTISRDNAKNTVYLQMNSLKPEDTAVYYCAARVWRYPWRASEYDYWGQGTQVTVSS", "MEASURED": "high polyreactivity"}

Could you now look at the following sequence, please?
Quick check: polyreactivity (PSR sort gate) of "QVQLVESGGGLVQAGGSLRLSCAASGFTFSPYTMGWSRQAPGKERELVATIRYDGTSTYYADSVKGRFTISRDNAKNTVYLQMNSLKREDTAVYYCAAEIWRVYSTFYYWGQGTQVSVSS" ?
low polyreactivity

Numbers sourced from the nanobody polyreactivity screen of Harvey et al. (2022).
